Target sequence: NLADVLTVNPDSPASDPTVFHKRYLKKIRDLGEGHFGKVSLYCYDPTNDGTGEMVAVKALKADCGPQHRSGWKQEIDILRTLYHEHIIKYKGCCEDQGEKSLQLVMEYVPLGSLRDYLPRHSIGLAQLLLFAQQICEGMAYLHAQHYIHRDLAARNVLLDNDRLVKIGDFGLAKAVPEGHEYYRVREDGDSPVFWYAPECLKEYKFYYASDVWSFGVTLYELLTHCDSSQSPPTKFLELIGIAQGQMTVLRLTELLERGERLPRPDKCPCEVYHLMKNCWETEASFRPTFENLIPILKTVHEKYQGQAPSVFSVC
pKi: −log10 of the molar value.
measurement_name: pKi

These recorded examples may help you get a feel for the data.
{"compound": "OC1CCCC(n2nnc3cnc4[nH]ccc4c32)C1 (single isomer, unassigned) [Example 553]", "pKi": 7.47}
{"compound": "c1cc2c(ncc3nc(C4CCCN4)n(C4CCCOC4)c32)[nH]1 (single isomer, unassigned)", "pKi": 5.49}
{"compound": "O=S(=O)(c1cccnc1)N1CCC(n2cnc3cnc4[nH]ccc4c32)CC1", "pKi": 7.18}
{"compound": "CC(C)(CF)N1CCC(n2c(CNS(C)(=O)=O)nc3cnc4[nH]ccc4c32)CC1", "pKi": 6.48}
{"compound": "Cc1nc2cnc3[nH]ccc3c2n1[C@H]1CC[C@H](NCC(F)(F)F)CC1", "pKi": 8.60}
{"compound": "c1ncc(CN[C@H]2CC[C@@H](n3cnc4cnc5[nH]ccc5c43)CC2)cn1", "pKi": 7.23}
{"compound": "N#CCCN1CCC(n2cnc3cnc4[nH]ccc4c32)CC1", "pKi": 8.45}
{"compound": "N#CCCNC1CC(n2cnc3cnc4[nH]ccc4c32)C1 (centres unmarked)", "pKi": 7.34}

[1] CCN1CC[C@@H](n2cnc3cnc4[nH]ccc4c32)[C@@H](F)C1
[2] FC1(F)CN(Cc2ccccc2)CCC1n1cnc2cnc3[nH]ccc3c21 (centres unmarked)
Dear colleague, could you let me know whether 1 or 2 has the lower recorded pKi? Thanks. // output: label of the selected item
1
(1: 7.07, 2: 7.67)

[1] c1cc2c(ncc3ncn(C4CCCOC4)c32)[nH]1 (single isomer, unassigned)
[2] Cc1nc2cnc3[nH]ccc3c2n1C1CCc2cn[nH]c2C1 (racemic)
Dear colleague, could you let me know whether 1 or 2 has the lower recorded pKi? Thanks. // output: label of the selected item
2
(2: 6.73, 1: 7.21)

[A] Cc1nc2cnc3[nH]ccc3c2n1[C@H]1CCC[C@](C)(O)C1
[B] COc1nc2cnc3[nH]ccc3c2n1C1CCN(CCC#N)CC1
Dear colleague, could you let me know whether A or B has the lower recorded pKi? Thanks. // output: label of the selected item
A

---

Target: JAK2 (Homo sapiens)
Construct: made in house; host or cells: SF9 insect cells (baculovirus)
Sequence (O60674 812-1132): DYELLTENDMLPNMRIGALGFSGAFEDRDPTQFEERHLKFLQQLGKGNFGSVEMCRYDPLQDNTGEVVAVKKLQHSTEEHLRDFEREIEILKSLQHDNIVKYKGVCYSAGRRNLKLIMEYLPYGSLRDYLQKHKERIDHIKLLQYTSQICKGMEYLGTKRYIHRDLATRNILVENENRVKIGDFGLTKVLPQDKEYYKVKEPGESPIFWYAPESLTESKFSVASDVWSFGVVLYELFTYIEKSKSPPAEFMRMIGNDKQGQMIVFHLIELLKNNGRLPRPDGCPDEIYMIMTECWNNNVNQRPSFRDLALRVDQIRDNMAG
Assay: JAK2 inhibition (Table 4)
Type: biochemical
Conditions: read-out: JAK2 Ki
measurement_name: Ki (nM)

These recorded examples may help you get a feel for the data.
{"molecule": "CS(=O)(=O)N[C@H]1CC[C@@H](n2cnc3cnc4[nH]ccc4c32)CC1 [Example 321]", "result_unit": "nM", "observed": 9.47}
{"molecule": "Cc1nc(S(=O)(=O)N2CCC(n3cnc4cnc5[nH]ccc5c43)CC2)cn1C [Example 444]", "result_unit": "nM", "observed": 370}
{"molecule": "N#CCCN1CCC(n2c(CCNC(=O)c3ccccc3)nc3cnc4[nH]ccc4c32)CC1 [Example 380]", "result_unit": "nM", "observed": 36}

[a] Cc1noc(CN2CC[C@H](n3c([C@@H](C)O)nc4cnc5[nH]ccc5c43)C2)n1 [Example 935]
[b] O=C(N[C@H]1CC[C@H](n2cnc3cnc4[nH]ccc4c32)CC1)C1CC1 [Example 572]
[c] Cc1nc2cnc3[nH]ccc3c2n1C1CCN(C(=O)NCC(F)(F)F)CC1 [Example 764]
[d] c1cnc(N2CCC(n3cnc4cnc5[nH]ccc5c43)CC2)cn1 [Example 72]
[e] c1ccc(CCN2CCC[C@@H](n3cnc4cnc5[nH]ccc5c43)C2)cc1 [Example 234]
Hello, I need these entries ordered by Ki, highest reading first. Thanks! Please write the labels in the order that was asked for.
a, c, e, b, d
(a: 1060 nM, c: 441 nM, e: 179 nM, b: 27 nM, d: 10.9 nM)
